# assay name: Cell cycle arrest in human ALL5 cells assessed as accumulation in S phase at 5 times of antiproliferative IC50 incubated for 48 hrs by propidium iodide based flow cytometry (reference value: 10.3 %)
# Type: functional
Entries and their Activity
Write down the value, and be sure its unit follows.

Prompt: Please indicate Activity recorded for "COc1c(Br)c2c(c(OC)c1OC)-c1ccc(SC)c(=O)cc1[C@@H](NC(=O)C(C)C)CC2"
Completion: 15.9%

Prompt: Report Activity, nothing else, for this molecule: "COc1cc2c(c(OC)c1OC)-c1ccc(OC)c(=O)cc1[C@@H](NC(C)=O)CC2"
Completion: 17.1%

Prompt: Return value of Activity for input "COCC(=O)N[C@H]1CCc2c(Br)c(OC)c(OC)c(OC)c2-c2ccc(SC)c(=O)cc21" , no commentary.
Completion: 15.3%

Prompt: Query Activity for "COc1c(Br)c2c(c(OC)c1OC)-c1ccc(SC)c(=O)cc1[C@@H](NC(C)=O)CC2"
Completion: 19.4%

Further cases:
Prompt: Provide Activity value for the following molecule: "COc1c(Br)c2c(c(OC)c1OC)-c1ccc(OC)c(=O)cc1[C@@H](NC(C)=O)CC2"
Completion: 20%

Prompt: Report Activity for "COc1c(Br)c2c(c(OC)c1OC)-c1ccc(SC)c(=O)cc1[C@@H](NC(=O)c1ccccc1)CC2"
Completion: 16%

Prompt: Tell us which Activity value is on record for "COc1cccc2c1C(=O)c1c(O)c3c(c(O)c1C2=O)C[C@@](O)(C(=O)CO)C[C@@H]3O[C@H]1C[C@H](N)[C@H](O)[C@H](C)O1"
Completion: 2.77%

Prompt: Read off the recorded Activity for "CCC(=O)N[C@H]1CCc2c(Br)c(OC)c(OC)c(OC)c2-c2ccc(SC)c(=O)cc21"
Completion: 14.5%

* * *

The following compounds are shown together with reported Activity values.
# assay name: Cell cycle arrest in human ALL5 cells assessed as accumulation in G1 phase at 5 times of antiproliferative IC50 incubated for 48 hrs by propidium iodide based flow cytometry (reference value: 67.4 %)
# Assay type: functional
Use % as the unit, but write only the number.

Examples with their reported Activity follow.
Prompt: Return Activity for the following compound: "COc1c(Br)c2c(c(OC)c1OC)-c1ccc(SC)c(=O)cc1[C@@H](NC(=O)c1ccccc1)CC2"
Completion: 33.8

Prompt: Check the records and state Activity for "COc1c(Br)c2c(c(OC)c1OC)-c1ccc(SC)c(=O)cc1[C@@H](NC(C)=O)CC2"
Completion: 33.4

Prompt: Consider the compound "COc1c(Br)c2c(c(OC)c1OC)-c1ccc(OC)c(=O)cc1[C@@H](NC(C)=O)CC2" and give its recorded Activity.
Completion: 35

Prompt: Using the record for "COCC(=O)N[C@H]1CCc2c(Br)c(OC)c(OC)c(OC)c2-c2ccc(SC)c(=O)cc21" , state its measured Activity.
Completion: 35

Prompt: Given COc1cc2c(c(OC)c1OC)-c1ccc(OC)c(=O)cc1[C@@H](NC(C)=O)CC2 [COLCHICINE] , respond with its Activity.
Completion: 33.2

Continuing:
Prompt: Indicate its recorded Activity; the compound in question is "COc1c(Br)c2c(c(OC)c1OC)-c1ccc(SC)c(=O)cc1[C@@H](NC(=O)C(C)C)CC2"
Completion: 32.1

Prompt: State, in one line, measured Activity of "CCC(=O)N[C@H]1CCc2c(Br)c(OC)c(OC)c(OC)c2-c2ccc(SC)c(=O)cc21"
Completion: 35

Prompt: Quickly give me recorded Activity for COc1cccc2c1C(=O)c1c(O)c3c(c(O)c1C2=O)C[C@@](O)(C(=O)CO)C[C@@H]3O[C@H]1C[C@H](N)[C@H](O)[C@H](C)O1 [DOXORUBICIN]
Completion: 67.6
